The reported numbers originate from the CombiSolv-Exp solvation set (Vermeire and Green 2021).

Measured solvation free energy, 298 K of individual entries
assay: solvent given as SMILES
experimental.conditions: in CS(C)=O

>  <compound>
C=CCCCCCC

>  <solvation free energy, 298 K (kJ/mol)>
-12.7

$$$$
>  <compound>
C=CC1CC=CCC1 (configuration not stated)

>  <solvation free energy, 298 K (kJ/mol)>
-16.6

$$$$
>  <compound>
C#CCCCC

>  <solvation free energy, 298 K (kJ/mol)>
-14.9

$$$$
>  <compound>
ClC(Cl)Cl

>  <solvation free energy, 298 K (kJ/mol)>
-19.7

$$$$
>  <compound>
CC(C)C

>  <solvation free energy, 298 K (kJ/mol)>
-2.22

$$$$
>  <compound>
ClC(Cl)=C(Cl)Cl

>  <solvation free energy, 298 K (kJ/mol)>
-17.9

$$$$
>  <compound>
C1COCCO1

>  <solvation free energy, 298 K (kJ/mol)>
-20.3

$$$$
>  <compound>
CCC1CCCCC1

>  <solvation free energy, 298 K (kJ/mol)>
-13.7

$$$$
>  <compound>
C=CCCCC

>  <solvation free energy, 298 K (kJ/mol)>
-8.79

$$$$
>  <compound>
CC1CCCC1

>  <solvation free energy, 298 K (kJ/mol)>
-10.3

$$$$
>  <compound>
C=CC=C

>  <solvation free energy, 298 K (kJ/mol)>
-7.53

$$$$
>  <compound>
C#CCCCCCC

>  <solvation free energy, 298 K (kJ/mol)>
-18.5

$$$$
>  <compound>
C=CC(=C)C

>  <solvation free energy, 298 K (kJ/mol)>
-9.96

$$$$
>  <compound>
C1=CCCC1

>  <solvation free energy, 298 K (kJ/mol)>
-11.4

$$$$
>  <compound>
CCC

>  <solvation free energy, 298 K (kJ/mol)>
-1.51

$$$$
>  <compound>
CC1CCCCC1

>  <solvation free energy, 298 K (kJ/mol)>
-11.4

$$$$
>  <compound>
CCCC

>  <solvation free energy, 298 K (kJ/mol)>
-4.14

$$$$

----------
assay: solvent given as SMILES
experimental.conditions: in O
Measured solvation free energy, 298 K of individual entries
measured.attribute: solvation free energy, 298 K (kcal/mol)

>  <compound>
CC(=O)C(C)O (configuration not stated)

>  <number>
-4.29

$$$$
>  <compound>
CCCCCOC(=O)CCC

>  <number>
-2.55

$$$$
>  <compound>
CCN

>  <number>
-4.5

$$$$
>  <compound>
Cc1ccnc(C)c1

>  <number>
-4.86

$$$$
>  <compound>
CC1CCCC1

>  <number>
1.6

$$$$
>  <compound>
FC(F)(F)c1ccccc1C(F)(F)F

>  <number>
1.07

$$$$
>  <compound>
O=C(O)Cc1ccc(O)cc1

>  <number>
-13

$$$$
>  <compound>
ClC(Cl)C(Cl)(Cl)Cl

>  <number>
-1.31

$$$$
>  <compound>
Nc1ccc(Cc2ccc(N)cc2)cc1

>  <number>
-16.3

$$$$
>  <compound>
CC(C)CO[N+](=O)[O-]

>  <number>
-1.88

$$$$
>  <compound>
FC(F)(Cl)C(F)(Cl)Cl

>  <number>
1.77

$$$$
>  <compound>
CC(C)=CCCC(C)C1C=CC(C)=CC1 (configuration not stated)

>  <number>
-0.11

$$$$
>  <compound>
Cc1cc(O)ccc1[N+](=O)[O-]

>  <number>
-9.89

$$$$
>  <compound>
Clc1ccc(-c2ccc(Cl)c(Cl)c2Cl)c(Cl)c1Cl

>  <number>
-3.6

$$$$
>  <compound>
ICI

>  <number>
-2.49

$$$$
>  <compound>
C=C1C2CCC(C2)C1(C)CCC=C(C)C (configuration not stated)

>  <number>
0.35

$$$$
>  <compound>
CC=Cc1ccc(O)c(OC)c1

>  <number>
-6.33

$$$$
